ASSAY_SYSTEM: Neutrophil elastase (Homo sapiens)
Sequence (P08246 whole entry): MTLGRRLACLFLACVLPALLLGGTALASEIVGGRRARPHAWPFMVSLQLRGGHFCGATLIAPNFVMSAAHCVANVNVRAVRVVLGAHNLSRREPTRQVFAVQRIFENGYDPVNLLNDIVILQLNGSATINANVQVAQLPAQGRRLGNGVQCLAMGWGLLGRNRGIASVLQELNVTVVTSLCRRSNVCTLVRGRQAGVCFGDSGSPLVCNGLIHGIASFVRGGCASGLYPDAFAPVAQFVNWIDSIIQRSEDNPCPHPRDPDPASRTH
ASSAY: Enzyme Inhibition Assay
PROPERTY: pIC50
The value called pIC50 is obtained by taking minus log10 of the concentration in mol/L.

Request: Lab note: need pIC50 with Neutrophil elastase (Homo sapiens) for entry N#Cc1ccc(C2C3=C(CCCC3=O)N(c3cccc(C(F)(F)F)c3)C(=O)N2C(=O)NC2CCCC[C@@H]2O)cc1 (some centres not stated) [USRE47493, Example 70.17] , please look it up.
Result: 8.96
